Test system: Pythium irregulare
test method notes: Pythium test (corn)/seed treatment
Format: in vivo
details: 10 g/dt seed of active ingredient, emerged seedlings after 7 days at 10° C. then 14 days at 20° C.
recorded metric: Eff. %
A complete answer gives the number and then names the unit.

// field: Eff. %; key: CCCC(C)OC(=O)Nc1cccc(CO/N=C(/c2ccccc2)c2noc(=O)n2C)n1 (centres unmarked) ; value = 90%

// field: Eff. %; key: CCOCC(C)OC(=O)Nc1cccc(CO/N=C(/c2ccccc2)c2noc(=O)n2C)n1 (centres unmarked) ; value = 100%

// field: Eff. %; key: "CCCCCOC(=O)Nc1cccc(CO/N=C(/c2ccccc2)c2noc(=O)n2C)n1" ; value = 100%

// field: Eff. %; key: C#CCC(C)OC(=O)Nc1cccc(CO/N=C(/c2ccccc2)c2noc(=O)n2C)n1 (centres unmarked) ; value = 90%

// field: Eff. %; key: "C#CCCOC(=O)Nc1cccc(CO/N=C(/c2ccccc2)c2noc(=O)n2C)n1" ; value = 100%

// field: Eff. %; key: "CCCCC(=O)Nc1cccc(CO/N=C(/c2ccccc2)c2noc(=O)n2C)n1" ; value = 100%

// field: Eff. %; key: "Cn1c(/C(=N\OCc2cccc(NC(=O)OCc3ccccc3)n2)c2ccccc2)noc1=O" ; value = 100%

// field: Eff. %; key: "C#CCOC(=O)Nc1cccc(CO/N=C(/c2ccccc2)c2noc(=O)n2C)n1" ; value = 100%
